B1: H2-Kb / Ed21 (parent complex)
chain 1: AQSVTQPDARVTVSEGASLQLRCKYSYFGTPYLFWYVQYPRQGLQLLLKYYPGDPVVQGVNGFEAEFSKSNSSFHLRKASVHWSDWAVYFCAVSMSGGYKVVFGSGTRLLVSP
chain 2: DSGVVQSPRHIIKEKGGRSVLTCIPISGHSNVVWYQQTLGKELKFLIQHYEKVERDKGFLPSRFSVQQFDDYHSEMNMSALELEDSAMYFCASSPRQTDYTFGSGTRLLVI
chain 3: not shown
chain 4: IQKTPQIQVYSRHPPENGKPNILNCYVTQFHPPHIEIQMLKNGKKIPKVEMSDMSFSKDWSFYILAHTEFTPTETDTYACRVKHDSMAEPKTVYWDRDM
chain 5: SIINFEKL

variants of: B1; assay: % of reporter cells activated (NFAT-GFP), raw; further: test concentration or dose not given here
quantity_measured: ratio to parent

chain 5 I3Y | 0.966
chain 5 L8A | 0.819
chain 5 I3T | 0.952

From: paper PMC11480844
